- Test system: Streptococcus Pneumonia 5979
Assignment: determine reported MIC for the given molecules.
One number for each entry, in µg/mL.

Before answering, review these 3 worked examples.
>  <molSmiles>
CC[C@H]1OC(=O)[C@H](C)C(=O)[C@H](C)[C@@H](O[C@@H]2O[C@H](C)C[C@H](N(C)C)[C@H]2O)[C@](C)(OCC#Cc2ccc(-c3ncccn3)s2)C[C@@H](C)C(=O)[C@H](C)[C@H]2NC(=O)O[C@@]21C

>  <testSystem>
Streptococcus Pneumonia 5979

>  <reportedProperty>
MIC

>  <readoutValue>
0.5

$$$$
>  <molSmiles>
CC[C@H]1OC(=O)[C@H](C)C(=O)[C@H](C)[C@@H](O[C@@H]2O[C@H](C)C[C@H](N(C)C)[C@H]2O)[C@](C)(OC/C=C/c2cncc(-c3cncc4ccccc34)c2)C[C@@H](C)C(=O)[C@H](C)[C@H]2NC(=O)O[C@@]21C

>  <testSystem>
Streptococcus Pneumonia 5979

>  <reportedProperty>
MIC

>  <readoutValue>
16

$$$$
>  <molSmiles>
CC[C@H]1OC(=O)[C@H](C)C(=O)[C@H](C)[C@@H](O[C@@H]2O[C@H](C)C[C@H](N(C)C)[C@H]2O)[C@](C)(OCC#Cc2ccc(-c3cccc(Cl)c3)s2)C[C@@H](C)C(=O)[C@H](C)[C@H]2NC(=O)O[C@@]21C

>  <testSystem>
Streptococcus Pneumonia 5979

>  <reportedProperty>
MIC

>  <readoutValue>
2

$$$$

Please report MIC for the following molecule: CC[C@H]1OC(=O)[C@H](C)C(=O)[C@H](C)[C@@H](O[C@@H]2O[C@H](C)C[C@H](N(C)C)[C@H]2O)[C@](C)(OC/C=C/c2ccc(-c3ccc(Cl)c(Cl)c3)s2)C[C@@H](C)C(=O)[C@H](C)[C@H]2NC(=O)O[C@@]21C 4

----------
# collection of MIC values tested on Nocardia Asteroides ATCC9970
Give bare numbers, in µg/mL.

Before answering, review these 3 worked examples.
>  <compound>
CC[C@H]1OC(=O)[C@H](C)C(=O)[C@H](C)[C@@H](O[C@@H]2O[C@H](C)C[C@H](N(C)C)[C@H]2O)[C@](C)(OC/C=C/c2ncc(-c3cccnc3)s2)C[C@@H](C)C(=O)[C@H](C)[C@H]2NC(=O)O[C@@]21C [Example 54]

>  <reportedProperty>
MIC

>  <unitDescriptor>
µg/mL

>  <readoutValue>
0.01

$$$$
>  <compound>
CC[C@H]1OC(=O)[C@H](C)C(=O)[C@H](C)[C@@H](O[C@@H]2O[C@H](C)C[C@H](N(C)C)[C@H]2O)[C@](C)(OC/C=C/c2nc(-c3cccnc3)cs2)C[C@@H](C)C(=O)[C@H](C)[C@H]2NC(=O)O[C@@]21C [Example 65]

>  <reportedProperty>
MIC

>  <unitDescriptor>
µg/mL

>  <readoutValue>
0.02

$$$$
>  <compound>
CC[C@H]1OC(=O)[C@H](C)C(=O)[C@H](C)[C@@H](O[C@@H]2O[C@H](C)C[C@H](N(C)C)[C@H]2O)[C@](C)(OC/C=C/c2cncc(-n3ccnc3)c2)C[C@@H](C)C(=O)[C@H](C)[C@H]2NC(=O)O[C@@]21C [Example 37]

>  <reportedProperty>
MIC

>  <unitDescriptor>
µg/mL

>  <readoutValue>
0.1

$$$$

Turning to the following compound.
Please report MIC for the following compound: CC[C@H]1OC(=O)[C@H](C)C(=O)[C@H](C)[C@@H](O[C@@H]2O[C@H](C)C[C@H](N(C)C)[C@H]2O)[C@](C)(OCC#Cc2ccc(-c3ccc(Cl)s3)s2)C[C@@H](C)C(=O)[C@H](C)[C@H]2NC(=O)O[C@@]21C [Example 26] 0.1

----------
# collection of MIC values tested on Streptococcus Pneumonia 5649
One number for each entry, in µg/mL.

>  <molecule>
CC[C@H]1OC(=O)[C@H](C)C(=O)[C@H](C)[C@@H](O[C@@H]2O[C@H](C)C[C@H](N(C)C)[C@H]2O)[C@](C)(OCC#Cc2ccc(-c3ccccn3)s2)C[C@@H](C)C2=NCCN3C(=O)O[C@@]1(C)[C@H]3[C@H]2C [Example 35]

>  <MIC / µg/mL>
0.25

$$$$

Turning to the following molecule.
Please report MIC for the following molecule: CC[C@H]1OC(=O)[C@H](C)C(=O)[C@H](C)[C@@H](O[C@@H]2O[C@H](C)C[C@H](N(C)C)[C@H]2O)[C@](C)(OCC#Cc2ccc(-c3cccc(NC(C)=O)c3)s2)C[C@@H](C)C(=O)[C@H](C)[C@H]2NC(=O)O[C@@]21C [Example 20] 0.25

----------
# collection of MIC values tested on Streptococcus pyogenes EES61
Answers are plain numbers, in µg/mL.

State the recorded MIC for every item in the following list.
1. CC[C@H]1OC(=O)[C@H](C)C(=O)[C@H](C)[C@@H](O[C@@H]2O[C@H](C)C[C@H](N(C)C)[C@H]2O)[C@](C)(OC/C=C/c2cncc(-c3nccs3)c2)C[C@@H](C)C(=O)[C@H](C)[C@H]2NC(=O)O[C@@]21C
2. CC[C@H]1OC(=O)[C@H](C)C(=O)[C@H](C)[C@@H](O[C@@H]2O[C@H](C)C[C@H](N(C)C)[C@H]2O)[C@](C)(OC/C=C/c2cnc(-c3ncc(Br)s3)s2)C[C@@H](C)C(=O)[C@H](C)[C@H]2NC(=O)O[C@@]21C

1: 0.02; 2: 0.05

State the recorded MIC for every item in the following list.
1. CC[C@H]1OC(=O)[C@H](C)C(=O)[C@H](C)[C@@H](O[C@@H]2O[C@H](C)C[C@H](N(C)C)[C@H]2O)[C@](C)(OCC#Cc2ccc(-c3cccc(Cl)c3)s2)C[C@@H](C)C(=O)[C@H](C)[C@H]2NC(=O)O[C@@]21C
2. CC[C@H]1OC(=O)[C@H](C)C(=O)[C@H](C)[C@@H](O[C@@H]2O[C@H](C)C[C@H](N(C)C)[C@H]2O)[C@](C)(OC/C=C/c2cncc(-c3ccccc3)c2)C[C@@H](C)C(=O)[C@H](C)[C@H]2NC(=O)O[C@@]21C

0.1
0.02

----------
- Tested on: Streptococcus Pneumonia 5979
- measurementDescription: in vitro antibacterial activity (MIC), agar dilution
- Type: cell-based
- experimentalConditions: organism code ZZ; BHI agar, 35-37° C., 20 to 24 hours; unit assumed
Assignment: determine reported MIC for the given compounds.
Numbers only, in µg/mL.

Before answering, review these 2 worked examples.
>  <molSmiles>
CC[C@H]1OC(=O)[C@H](C)C(=O)[C@H](C)[C@@H](O[C@@H]2O[C@H](C)C[C@H](N(C)C)[C@H]2O)[C@](C)(OC/C=C/c2ccc(-c3ncccn3)s2)C[C@@H](C)C(=O)[C@H](C)[C@H]2NC(=O)O[C@@]21C

>  <unitDescriptor>
µg/mL

>  <MIC>
8

$$$$
>  <molSmiles>
CC[C@H]1OC(=O)[C@H](C)C(=O)[C@H](C)[C@@H](O[C@@H]2O[C@H](C)C[C@H](N(C)C)[C@H]2O)[C@](C)(OC/C=C/c2cncc(-c3ccco3)c2)C[C@@H](C)C(=O)[C@H](C)[C@H]2NC(=O)O[C@@]21C

>  <unitDescriptor>
µg/mL

>  <MIC>
128

$$$$

Turning to the following compound.
Please report MIC for the following compound: CC[C@H]1OC(=O)[C@H](C)C(=O)[C@H](C)[C@@H](O[C@@H]2O[C@H](C)C[C@H](N(C)C)[C@H]2O)[C@](C)(OC/C=C/c2cncc(-c3ccccc3)c2)C[C@@H](C)C(=O)[C@H](C)[C@H]2NC(=O)O[C@@]21C 32

----------
Assignment: determine reported MIC for the given compounds.
- System: Streptococcus Pneumonia 5979
One number for each entry, in µg/mL.

>  <molSmiles>
CC[C@H]1OC(=O)[C@H](C)C(=O)[C@H](C)[C@@H](O[C@@H]2O[C@H](C)C[C@H](N(C)C)[C@H]2O)[C@](C)(OC/C=C/c2cncc(-c3ccccn3)c2)C[C@@H](C)C(=O)[C@H](C)[C@H]2NC(=O)O[C@@]21C

>  <unitDescriptor>
µg/mL

>  <readoutValue>
64

$$$$
>  <molSmiles>
CC[C@H]1OC(=O)[C@H](C)C(=O)[C@H](C)[C@@H](O[C@@H]2O[C@H](C)C[C@H](N(C)C)[C@H]2O)[C@](C)(OC/C=C/c2cncc(-c3ccsc3)c2)C[C@@H](C)C(=O)[C@H](C)[C@H]2NC(=O)O[C@@]21C

>  <unitDescriptor>
µg/mL

>  <readoutValue>
32

$$$$

Turning to the following compound.
Please report MIC for the following compound: CC[C@H]1OC(=O)[C@H](C)C(=O)[C@H](C)[C@@H](O[C@@H]2O[C@H](C)C[C@H](N(C)C)[C@H]2O)[C@](C)(OCC#Cc2ccc(-c3cncc(C(N)=O)c3)s2)C[C@@H](C)C(=O)[C@H](C)[C@H]2NC(=O)O[C@@]21C 0.03
